Molecular target: T1, BoNT/B light chain (recombinant) (Clostridium botulinum, UniProt P10844 1-441)
T1 sequence: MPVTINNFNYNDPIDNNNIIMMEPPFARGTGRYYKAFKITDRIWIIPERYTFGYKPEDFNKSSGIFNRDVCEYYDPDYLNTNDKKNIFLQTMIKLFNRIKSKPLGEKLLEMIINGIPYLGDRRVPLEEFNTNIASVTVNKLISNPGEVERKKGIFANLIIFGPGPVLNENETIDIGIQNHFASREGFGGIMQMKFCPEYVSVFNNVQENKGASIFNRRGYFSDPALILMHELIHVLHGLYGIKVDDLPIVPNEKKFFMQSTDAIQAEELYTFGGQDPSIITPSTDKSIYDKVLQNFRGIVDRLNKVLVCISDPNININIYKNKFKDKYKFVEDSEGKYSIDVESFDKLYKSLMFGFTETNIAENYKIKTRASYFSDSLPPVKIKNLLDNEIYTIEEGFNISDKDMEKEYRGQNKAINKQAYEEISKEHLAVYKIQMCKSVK
Assay: yeast scFv FACS
Item-by-item account of pKd
pKd (log units): -log10 of the concentration in mol/L.

Please review the following examples before continuing.
binder | pKd
34E8B12 scFv (scFv, mouse) scFv: QVQLVESGPDLVKPSQSLSLTCTVTGYSITSGYSWHWIRQFPGNKLEWMGYIHYSGSTNYNPSLKSRISITRDTSKNQFFLQLNSVTTEDTATYYCAVYYDYDGDYFDYWGQGTTLTVSSVDLKSGGSTSGSGKPGSGEGSSGSARDVVMTQSPAIMSASPGEKVTMTCSASSSVSYMYWFQQKPGSSPKPWIYRTSNLAPGVPARFSGSGSGTSYSLTISSMEAEDAATYYCQQWSSNPPWTFGGGTKLEIK | 8.61
19A9 scFv (scFv, mouse) scFv: EVQLQQPGSELARPGASVKLSCKASGYTFTSYPITWVKQTTGQGLEWIGEIYPRSGNTYYNEKFKGKATLTADKSSSTAYMELRSLTSEDSAVYFCARDYYDYAGGGRGYWGQGTTLTVSSVDLKSGGSTSGSGKPGSGEGSSGSARDIVLTQSPAIMSASPGGKITITCSASSSVSYMHWFQQKPGTSPKLWIYSTSNLASGVPARFSGSGSGTSYSLTISRMEAEDAATYYCQQRSSYPYTFGGGTKLEIK | 8.50
31A5.1 scFv (scFv, mouse) scFv: DVQLQESGPELVKPGASVKISCKASGYSFTDYNMNWVKQSNGKSLEWIGVINPNYGTTSYNQKFKGKATLTVDQSSSTAYMQLNSLTSEDSAVYYCARSGGTGYYFDYWGQGTTLTVSSVDLKSGGSTSGSGKPGSGEGSSGSARQIVLTQSPAILSASPGEKVAMTCRASSSVSYMHWYQQKPGSSPKLLIYDTSNLASGVPVRFSGSGSGTSYSLTISRMEAEDAATYYCQQWSSYPPTFGGGTKLEIK | 8.76
18F2 scFv (scFv, mouse) scFv: EVQLQQSGPELMKPGASVKISCKASGYAFSRSWMNWVKQRPGKGLEWIGRIYPGDGDTNYNGKFKDKASLTADTSSSTAYMQLSSLTSEDSAVYFCTKSEGYYHNLGAYWGQGTTVTVSSVDLKSGGSTSGSGKPGSGEGSSGSAREIVLTQSPAIMSASPGQKVTITCSASSSVSYMHWYQQKSGTSPKRWIYDTSKLASGVPARFSGSGSGTSYSLIISSMEAEDAATYYCQQWRSNPPTFGGGTRLEIK | 8.98
16B3 scFv (scFv, mouse) scFv: EVQLQQSGPELVKPGASVKITCKASGYTFTDNNMDWVKQSHGKSLEWIGDINPNNGGSIYNQKFKGKASLTLDKSSSTAYMELRSLTSEDTAVYYCARWGYYGSLAYWGQGTLVTVSSVDLKSGGSTSGSGKPGSGEGSSGSARQNVLTQSPAIMSASPGEKVTMTCSASSSVSSRYLHWYQQKSGASPKLWIYGTSNLASGVPARFSGSGSGTSYSLTISSVEAEDAATYYCQQYHSDPLTFGGGTKLEIK | 9.08
18D10 scFv (scFv, mouse) scFv: QVQLKQSGIEVMKPGASVKLSCKASGYPFTAYWIEWVKQRPGHGLEWIGEFLPGGISTNFNEKFKGKATFSADTSSNSAYIQLNSLTTEDSAIYYCVLTGTGFDYWGQGTSVTVSSVDLKSGGSTSGSGKPGSGEGSSGSARENVLTQSPAIMSASPGEKVTMTCSASSSVSYMHWYQQKSGTSPKRWIYDTSKLASGVPARFSGSGSGTSYSLTISSMEAEDAATYYCQQWSSNPLTFGAGTKLELK | 8.12

Lookup: # lookup: pKd of 31E2.20 scFv (scFv, mouse) scFv: EVKLVESGAELVRPGASVKLSCTASGFNIKDDYVHWVKQRPEQGLEWIGRIDPEDGETKYAPKFQGKATITADTSSNTAYLQLSSLTSEDTAVYYCALWSNWYFDVWGAGTTVTVSAVDLKSGGSTSGSGKPGSGEGSSGSAREIVLTQSPEILSASPGEKVTMTCRASSSVSYMHWYQQKPGSSPKPWIYATSNLASGVPARFSGSGSGTSYSLTISSMEAEDAATYYCQQFHNYPPTFGAGTKLELK
Found: 8.71

Lookup: # lookup: pKd of 31H3 scFv (scFv, mouse) scFv: EVQLQQSGAELVRPGASVKMSCKASGYPFTIYWITWVKQRPGQGLEWIGEIYPGSGFTKYNEKFRSKATLTVDTSSSTAYMQLSSLTSEDSAVYYCALYGSNFDYWGQGTTLTVSSVDLKSGGSTSGSGKPGSGEGSSGSARDIVMTQSPAIMSASPGEKVTMPCSASSSVSYMHWYQQKPGTSPKRWIYDTSKLASGVPARFSGSGSGTSYSLTISRVEAEDAATYYCQQWSSHPPTFGAGTRLEIK
Found: 8.89

Lookup: # lookup: pKd of 31A5 scFv (scFv, mouse) scFv: DVQLQESGPELVKPGASVKISCKASGYSFTDYNMNWVKQSNGKSLEWIGVINPNYGTTSYNQKFKGKATLTVDQSSSTAYMQLNSLTSEDSAVYYCARSGGTGYYFDYWGQGTTLTVSSVDLKSGGSTSGSGKPGSGEGSSGSARQIVLTQSPAILSASPGEKVTMTCRASSSVSYMHWYQQKPGSSPKAWIYATSNLASGVPARFSGSGSGTSYSLTISRVEAEDAATYYCQQWSSYPPTFGSGTKLEIK
Found: 8.03
